tested on: ALS enzyme extracted from Mutant 6 (heterozygous); test: ALS enzyme assay, heterozygous Mutant 6; type: biochemical, Zea mays; conditions: fold increase in resistance vs wild type, heterozygous Mutant 6; 30 min
Quick reference: Fold Increase of the listed items.
Lab note: jot down the number only; don't add units.

Below are worked cases with known answers.
{"compound": "COC(=O)c1sccc1S(=O)(=O)NC(=O)Nc1nc(C)nc(OC)n1", "Fold Increase": 1}
{"compound": "CC(C)C1(C)N=C(c2ncccc2C(=O)O)NC1=O (stereo not drawn)", "Fold Increase": 2}

Consider now this further compound.
Qu. What does the record list as Fold Increase for CC(C)C1(C)N=C(c2nc3ccccc3cc2C(=O)O)NC1=O (stereo not drawn) ?
Ans. 2

* * *

# Fold Increase values compiled below
tested on: ALS extracted from leaves of MUTANT 1 (homozygous); test: ALS enzyme assay, homozygous Mutant 1; assay type: biochemical, Zea mays; details: fold increase in resistance vs wild type, homozygous Mutant 1; 30 min

Take a look at these entries with their results.
{"compound": "CC(C)C1(C)N=C(c2nc3ccccc3cc2C(=O)O)NC1=O (centres unmarked)", "test.target": "ALS extracted from leaves of MUTANT 1 (homozygous)", "Fold Increase": 292}
{"compound": "COc1nc(C)nc(NC(=O)NS(=O)(=O)c2ccccc2Cl)n1", "test.target": "ALS extracted from leaves of MUTANT 1 (homozygous)", "Fold Increase": 3.2}
{"compound": "CCc1cnc(C2=NC(=O)C(C)(C(C)C)N2)c(C(=O)O)c1 (centres unmarked)", "test.target": "ALS extracted from leaves of MUTANT 1 (homozygous)", "Fold Increase": 500}
{"compound": "COc1cc(Cl)nc(NC(=O)NS(=O)(=O)c2ccccc2C(=O)O)n1", "test.target": "ALS extracted from leaves of MUTANT 1 (homozygous)", "Fold Increase": 2.7}

Qu. # input compound: CC(C)C1(C)N=C(c2ncccc2C(=O)O)NC1=O (centres unmarked) ; wanted: its Fold Increase
Ans. >333

* * *

Parameter Fold Increase: see the listing below.
test system: ALS enzyme extracted from Mutant 1 (heterozygous); test: ALS enzyme assay, heterozygous Mutant 1; assay type: biochemical, Zea mays; conditions: fold increase in resistance vs wild type, heterozygous Mutant 1; 30 min
// return a plain number; no unit text

Here are 3 compounds together with their reported answers.
{"compound": "COc1cc(Cl)nc(NC(=O)NS(=O)(=O)c2ccccc2C(=O)O)n1", "Fold Increase": 1}
{"compound": "CC(C)C1(C)N=C(c2nc3ccccc3cc2C(=O)O)NC1=O (stereo not drawn)", "Fold Increase": 250}
{"compound": "COC(=O)c1sccc1S(=O)(=O)NC(=O)Nc1nc(C)nc(OC)n1", "Fold Increase": 1}

Now for a further compound.
Qu. Reported Fold Increase, compound COc1nc(C)nc(NC(=O)NS(=O)(=O)c2ccccc2Cl)n1 : ____
Ans. 4

* * *

# maps each entry to its Fold Increase
system: ALS enzyme extracted from Mutant 8 (heterozygous); assay: ALS enzyme assay, heterozygous Mutant 8; type: biochemical, Zea mays; settings: fold increase in resistance vs wild type, heterozygous Mutant 8; 30 min
Write no unit; give the number alone.

In the examples that follow, each entry is paired with its recorded Fold Increase.
{"compound": "CC(C)C1(C)N=C(c2nc3ccccc3cc2C(=O)O)NC1=O (stereo not drawn)", "Fold Increase": 250}
{"compound": "COc1cc(Cl)nc(NC(=O)NS(=O)(=O)c2ccccc2C(=O)O)n1", "Fold Increase": 3}
{"compound": "COC(=O)c1sccc1S(=O)(=O)NC(=O)Nc1nc(C)nc(OC)n1", "Fold Increase": 1}

Qu. Looking for the measured Fold Increase of COc1nc(C)nc(NC(=O)NS(=O)(=O)c2ccccc2Cl)n1 , can you help?
Ans. 4
